The reported measurements were obtained from ChEMBL document CHEMBL1138476.

In this section, each of the compounds is paired with its reported half-life.
# protocol-notes: Elimination half life in chimpanzee at 0.5 mg/kg, iv
# Assay type: ADME, organism-based, Pan troglodytes
# Set-up: dose 0.5 mg/kg, route intravenous
# condition-set: in vivo, read-out: beta t1/2 (converted)
Please state the figure in min; there is no need to write the unit.

COCCN(CCOC)c1nc(C)nc2c(-c3ccc(OC)cc3C)c(C)nn12.O=S(=O)(O)c1ccccc1 : 1210

Proceed to the following item.
Incoming: Input CC[C@@H](C)Nc1nc(C)nc2c(-c3ccc(OC)nc3C)c(C)nn12 , output reported half-life.
Outgoing: 1800

###

# study-system: Corticotropin-releasing factor receptor 1 (Rattus norvegicus)
# Sequence (P35353 whole entry): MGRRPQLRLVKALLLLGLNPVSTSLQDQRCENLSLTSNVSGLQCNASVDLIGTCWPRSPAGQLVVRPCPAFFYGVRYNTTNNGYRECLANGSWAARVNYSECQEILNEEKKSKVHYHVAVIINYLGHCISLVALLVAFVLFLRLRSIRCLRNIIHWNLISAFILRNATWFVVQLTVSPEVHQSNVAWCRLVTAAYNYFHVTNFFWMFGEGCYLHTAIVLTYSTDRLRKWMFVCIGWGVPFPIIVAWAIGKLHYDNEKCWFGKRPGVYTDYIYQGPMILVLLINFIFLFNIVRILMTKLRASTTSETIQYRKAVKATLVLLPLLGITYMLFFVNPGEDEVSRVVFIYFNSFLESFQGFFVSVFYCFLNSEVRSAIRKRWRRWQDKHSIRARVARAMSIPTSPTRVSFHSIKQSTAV
# protocol-notes: Displacement of [125I]Tyro-rat/human CRF from CRF1 receptor in rat cortical membrane by gamma counting
# Type: cell membranes
Note to self: class labels come from recorded IC50, ranges listed here: low class: < 8 nM; middle class: ≥ 8 nM and < 30 nM; high class: ≥ 30 nM

Completed entries (count: 5):
COCCN(CCOC)c1nc(C)nc2c(-c3cnc(OC)cc3C)c(C)nn12 : middle class
CCCCN(CC)c1nc(C)nc2c(-c3c(C)cc(N(C)C)nc3C)c(C)nn12 : high class
CCCN(C)c1nc(C)nc2c(-c3ccc(OC)nc3C)c(C)nn12 : middle class
COCCN(CCOC)c1nc(C)nc2c(-c3c(C)cc(N(C)C)nc3C)c(C)nn12 : high class
CC[C@@H](C)Nc1nc(C)nc2c(-c3ccc(OC)nc3C)c(C)nn12 [PEXACERFONT] : low class

Incoming: Record CCCN(CC1CC1)c1nc(C)nc2c(-c3ccc(OC)nc3C)c(C)nn12 — which class?
Outgoing: low class

Incoming: Record CCC(CC)Nc1nc(C)nc2c(-c3ccc(OC)nc3C)c(C)nn12 — which class?
Outgoing: low class

Incoming: Record CCN(CC)c1nc(C)nc2c(-c3c(C)cc(N(C)C)nc3C)c(C)nn12 — which class?
Outgoing: high class

Incoming: Record COCCN(CCOC)c1nc(C)nc2c(-c3cnc(N(C)C)cc3C)c(C)nn12 — which class?
Outgoing: high class

###

# protocol-notes: Aqueous solubility at pH 7.4
# Format: physicochemical
# condition-set: aqueous medium
recorded-endpoint: solubility

CC[C@@H](C)Nc1nc(C)nc2c(-c3ccc(OC)nc3C)c(C)nn12 : 16 µg/mL
COCCN(CCOC)c1nc(C)nc2c(-c3ccc(OC)cc3C)c(C)nn12.O=S(=O)(O)c1ccccc1 : < 1 µg/mL

Proceed to the following item.
Incoming: Input COCC(COC)Nc1nc(C)nc2c(-c3ccc(Cl)cc3Cl)c(C)nn12 , output reported solubility.
Outgoing: < 1 µg/mL

###

# protocol-notes: AUC in Beagle dog at 1 mg/kg, po by cassette dosing
# Format: ADME, organism-based, Canis lupus familiaris
# Parameters: dose 1 mg/kg, route oral
# condition-set: plasma
Response key: fulfilled means AUC >= 1 µM·h; not fulfilled means AUC < 1 µM·h.

Completed entries (count: 4):
COCCN(CCOC)c1nc(C)nc2c(-c3ccc(OC)nc3C)c(C)nn12 : fulfilled
CCCC(C)Nc1nc(C)nc2c(-c3ccc(OC)nc3C)c(C)nn12 (stereo unspecified) : not fulfilled
CC[C@H](C)Nc1nc(C)nc2c(-c3ccc(OC)nc3C)c(C)nn12 : not fulfilled
COCCN(CCOC)c1nc(C)nc2c(-c3ccc(OC)cc3C)c(C)nn12.O=S(=O)(O)c1ccccc1 : fulfilled

Incoming: Check the entry CC[C@@H](C)Nc1nc(C)nc2c(-c3ccc(OC)nc3C)c(C)nn12 : does AUC equal or exceed 1 µM·h?
Outgoing: fulfilled

Incoming: Check the entry COCCN(CC1CC1)c1nc(C)nc2c(-c3ccc(OC)nc3C)c(C)nn12 : does AUC equal or exceed 1 µM·h?
Outgoing: fulfilled
